Compiled notes: published pIC50 values involving PIK3CB (Human) (UniProt P42338).
pIC50: −log10 of the molar value.

Please review the following examples before continuing.
{"compound": "Cc1nc2c(C(N)=O)cc(-c3ccncc3)cc2n1-c1ccnc2c(Cl)cccc12", "meas value": 7.82}
{"compound": "C[C@@H]1CCN(C(=O)Nc2nc3c(s2)-c2cc(C(C)(C)C)ncc2OC3)[C@@H]1C(N)=O", "meas value": 5.94}
{"compound": "CCN(CC)CCn1cnc2ccc(-c3ccc4oc(N)nc4c3)cc2c1=O", "meas value": "< 5.00"}

The compound listed as `Cc1nccc(-c2cc(-c3nnc[nH]3)c3nc(C)n(-c4ccnc5c(F)ccc(F)c45)c3c2)n1` has a reported pIC50 of 7.92

The compound listed as `C[C@H](NC(=O)c1nc(-c2csc(S(C)(=O)=O)n2)cnc1N)c1cc2cccc(Cl)c2c(=O)n1-c1ccccc1` has a reported pIC50 of 5.00 to 6.00

The compound listed as `CNCCn1c([C@H](C)NC(=O)c2c(N)nn3cccnc23)cc2cccc(Cl)c2c1=O` has a reported pIC50 of > 7.00

The compound listed as `CN1CCN(C(=O)c2cnc3ccc(-c4ccc5oc(N)nc5c4)cc3n2)CC1` has a reported pIC50 of < 5.00

The compound listed as `C[C@H](Nc1nc(N)ncc1C#N)c1cc2cccc(-c3ccc(S(N)(=O)=O)cc3)c2c(=O)n1-c1ccccc1` has a reported pIC50 of 5.00 to 6.00

The compound listed as `C[C@H](NC(=O)c1c(N)nn2cccnc12)c1cc2cccc(CN(C)C)c2c(=O)n1-c1ccccc1` has a reported pIC50 of < 5.00

The compound listed as `COc1ncc(-c2ccc3ncn(CCCC(=O)N4CCCC4)c(=O)c3c2)cc1NS(=O)(=O)c1ccc(F)cc1Cl` has a reported pIC50 of 6.70

* * *

Compiled notes: published IC50 values involving PIK3CB (Human) (UniProt P42338).

Please review the following examples before continuing.
{"compound": "C[C@H](NC(=O)c1nc(-c2cccc(S(=O)(=O)N3CCCC3)c2)cnc1N)c1cc2cccc(Cl)c2c(=O)n1-c1ccccc1", "IC50": "1000 to 10000 nM"}
{"compound": "C[C@H]1COC(=O)N1c1cc(-c2cnc(N)nc2C(F)(F)F)nc(N2CCOCC2)n1", "IC50": "6 nM"}
{"compound": "CNC(=O)[C@H]1C[C@H](n2cnc3ccc(-c4cnc(C)c(NS(=O)(=O)c5ccc(F)cc5Cl)c4)cc3c2=O)C1", "IC50": "95.9 nM"}
{"compound": "Nc1nc2cc(-c3ccc4ncc(N5CC(N6CCOCC6)C5)cc4n3)ccc2o1", "IC50": "< 10000 nM"}
{"compound": "C[C@H](Nc1nc(N)ncc1C#N)c1cc2cccc(-c3ccc(N(C)C)cc3)c2c(=O)n1-c1ccccc1", "IC50": "1000 to 10000 nM"}

The compound listed as `CN1CCN(CCCn2cnc3ccc(-c4ccc5oc(N)nc5c4)cc3c2=O)CC1` has a reported IC50 of > 10000 nM

The compound listed as `C[C@H](NC(=O)c1c(N)nn2cccnc12)c1cc2cccc(N(C)C)c2c(=O)n1-c1ccccc1` has a reported IC50 of > 10000 nM

* * *

pIC50: −log10 of the molar value.
Compiled notes: published pIC50 values involving PIK3CB (Human) (UniProt P42338).

Please review the following examples before continuing.
{"compound": "C[C@H](Nc1nc(N)ncc1-c1nccs1)c1cc2cccc(Cl)c2c(=O)n1-c1ccccc1", "meas value": "5.00 to 6.00"}
{"compound": "CC(C)N1CCC(Oc2nc([C@H](C)Nc3ncnc4[nH]cnc34)cc3cccc(Cl)c23)CC1", "meas value": "> 5.00"}
{"compound": "COc1ccccc1-n1c(Cn2nc(C#C[C@@H](C)O)c3c(N)ncnc32)cc2cccc(C)c2c1=O", "meas value": "< 5.00"}

Proceeding to the next compound to report its pIC50.
The compound listed as CNC(=O)[C@@H]1CCC[C@H]1Cn1cnc2ccc(-c3cnc(OC)c(NS(=O)(=O)c4ccc(F)cc4Cl)c3)cc2c1=O (single isomer, unassigned) has a reported pIC50 of 5.75

* * *

Compiled notes: published IC50 values involving PIK3CB (Human) (UniProt P42338).

Please review the following examples before continuing.
{"compound": "Nc1nc2cc(-c3ccc4ncc(N5CC(N6CCCC6)C5)nc4c3)ccc2o1", "meas value": "< 10000 nM"}
{"compound": "C[C@H](NC(=O)c1cnc2cccnn12)c1cc2cccc(Cl)c2c(=O)n1-c1ccc(F)cc1", "meas value": "1000 to 10000 nM"}

The compound listed as `Cc1csc2nc(Cn3nc(-c4cc(O)cc(F)c4)c4c(N)ncnc43)n(-c3ccccc3Cl)c(=O)c12` has a reported IC50 of < 1000 nM

The compound listed as `CCOC(=O)N1CCN(c2cnc3ccc(-c4ccc5oc(N)nc5c4)nc3n2)CC1` has a reported IC50 of < 1000 nM

* * *

Compiled notes: published IC50 values involving PIK3CB (Human) (UniProt P42338).

{"molecule": "CCN1CCN(C2CN(c3cnc4ccc(-c5ccc6nc(N)[nH]c6c5)nc4c3)C2)CC1", "measurement target": "PIK3CB (Human) (UniProt P42338)", "reported metric": "IC50", "meas value": "> 10 µM"}
{"molecule": "C[C@H](NC(=O)c1nccnc1N)c1cc2cccc(Cl)c2c(=O)n1-c1ccc(F)cc1", "measurement target": "PIK3CB (Human) (UniProt P42338)", "reported metric": "IC50", "meas value": "0.1 to 1 µM"}
{"molecule": "COc1cc(-c2cccc3cc([C@H](C)Nc4nc(N)ncc4-c4cnc(OC)s4)n(-c4ccccc4)c(=O)c23)ccn1", "measurement target": "PIK3CB (Human) (UniProt P42338)", "reported metric": "IC50", "meas value": "1 to 10 µM"}
{"molecule": "Cc1ccccc1-n1c(Cn2nc(Br)c3c(N)ncnc32)nc2scc(C)c2c1=O", "measurement target": "PIK3CB (Human) (UniProt P42338)", "reported metric": "IC50", "meas value": "> 10 µM"}
{"molecule": "C[C@@H]1COCCN1C1CN(c2cnc3ccc(-c4ccc5oc(N)nc5c4)nc3n2)C1", "measurement target": "PIK3CB (Human) (UniProt P42338)", "reported metric": "IC50", "meas value": "> 10 µM"}
{"molecule": "COc1ncc(-c2ccc3ncn(CC(F)(F)C(N)=O)c(=O)c3c2)cc1NS(=O)(=O)c1ccc(F)cc1Cl", "measurement target": "PIK3CB (Human) (UniProt P42338)", "reported metric": "IC50", "meas value": "0.124 µM"}
{"molecule": "Nc1nc2ccc(-c3ccc4nc(N)sc4c3)cc2o1", "measurement target": "PIK3CB (Human) (UniProt P42338)", "reported metric": "IC50", "meas value": "< 0.1 µM"}
{"molecule": "C[C@H](Nc1nc(N)ncc1-c1cccc(N(C)S(C)(=O)=O)c1)c1cc2cccc(Cl)c2c(=O)n1-c1ccccc1", "measurement target": "PIK3CB (Human) (UniProt P42338)", "reported metric": "IC50", "meas value": "1 to 10 µM"}
{"molecule": "C[C@H](Nc1ncnc2scnc12)c1cc2cccc(Cl)c2c(C(=O)NC2CCC(O)CC2)n1 (some centres unmarked)", "measurement target": "PIK3CB (Human) (UniProt P42338)", "reported metric": "IC50", "meas value": "> 10 µM"}
{"molecule": "CN(C(=O)c1cnc2ccc(-c3ccc4oc(N)nc4c3)cn12)C1CCOCC1", "measurement target": "PIK3CB (Human) (UniProt P42338)", "reported metric": "IC50", "meas value": "< 10 µM"}

Proceeding to the next molecule to report its IC50.
The molecule listed as `C[C@@H]1CN(c2cnc3ccc(-c4ccc5oc(N)nc5c4)cc3n2)CCN1` has a reported IC50 of < 1 µM

* * *

Compiled notes: published IC50 values involving PIK3CB (Human) (UniProt P42338).

{"compound": "CN1CCN(C2CN(c3cnc4ccc(-c5ccc6oc(N)nc6c5)nc4c3)C2)CC1", "measurement target": "PIK3CB (Human) (UniProt P42338)", "IC50": "< 1000 nM"}
{"compound": "Cc1cccc2cc([C@H](C)Nc3nc(F)nc4[nH]cnc34)n(C3CC3)c(=O)c12", "measurement target": "PIK3CB (Human) (UniProt P42338)", "IC50": "< 100 nM"}
{"compound": "C[C@H](Nc1nc(N)ncc1-c1ccc(O)cc1)c1cc2cccc(Cl)c2c(=O)n1-c1ccccc1", "measurement target": "PIK3CB (Human) (UniProt P42338)", "IC50": "1000 to 10000 nM"}
{"compound": "CN1CC(n2cnc3ccc(-c4ccc5oc(N)nc5c4)cc3c2=O)C1", "measurement target": "PIK3CB (Human) (UniProt P42338)", "IC50": "< 10000 nM"}
{"compound": "CC1CN(c2cnc3ccc(-c4ccc5oc(N)nc5c4)cc3n2)CCO1 (stereo not drawn)", "measurement target": "PIK3CB (Human) (UniProt P42338)", "IC50": "< 1000 nM"}
{"compound": "Nc1nc2cc(-c3ccc4ncc(-c5ccnc(N6CCOCC6)c5)nc4c3)ccc2o1", "measurement target": "PIK3CB (Human) (UniProt P42338)", "IC50": "> 10000 nM"}
{"compound": "Nc1nc2cc(-c3ccc4ncc(N5CCNC(=O)C5)nc4c3)ccc2o1", "measurement target": "PIK3CB (Human) (UniProt P42338)", "IC50": "< 100 nM"}
{"compound": "CS(=O)(=O)N1CCN(c2cnc3ccc(-c4ccc5oc(N)nc5c4)cc3n2)CC1", "measurement target": "PIK3CB (Human) (UniProt P42338)", "IC50": "< 1000 nM"}

The compound listed as `[2H]c1c(-c2ccc3ncc(C(=O)N4CCOCC4)n3c2)c([2H])c2nc(N)oc2c1[2H]` has a reported IC50 of < 10000 nM
